Kindly state IC50 for each of the entries shown.
# system-tested: recombinant human FGFR1 catalytic domain (amino acids 308-731) (Homo sapiens (Human), UniProt P11362)
# Sequence (P11362 other isoform, or with tags, fused parts or gaps): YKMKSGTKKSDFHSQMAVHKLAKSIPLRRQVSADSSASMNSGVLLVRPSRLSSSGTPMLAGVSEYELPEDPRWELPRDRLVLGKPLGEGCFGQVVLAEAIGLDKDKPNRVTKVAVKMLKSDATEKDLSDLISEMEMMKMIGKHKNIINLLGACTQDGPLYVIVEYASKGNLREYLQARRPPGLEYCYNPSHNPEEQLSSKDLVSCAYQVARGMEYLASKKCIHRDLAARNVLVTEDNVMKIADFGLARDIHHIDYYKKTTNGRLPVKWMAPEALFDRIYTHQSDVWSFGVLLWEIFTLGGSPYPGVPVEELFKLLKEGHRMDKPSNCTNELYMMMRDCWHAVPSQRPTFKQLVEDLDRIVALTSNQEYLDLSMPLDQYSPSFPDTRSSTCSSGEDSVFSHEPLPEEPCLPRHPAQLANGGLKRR
# method-summary: FGFR1 enzyme activity assay (LanthaScreen TR-FRET)
# test-context: 20 min incubation at 22° C., average of multiple determinations if made, read-out: FGFR1 Enz FRET IC50
Answers are plain numbers, in µM.

{"molecule": "C=CC(=O)N1CC(CN2CCC(n3ncc(-c4cc(OC)c5c(C#N)cnn5c4)c3C)CC2)C1 [Example 89]", "assay-result": 0.108}
{"molecule": "C=CC(=O)N1CCC[C@H](C(=O)N2CC[C@H](n3cc(-c4cc(OC)c5c(C#N)cnn5c4)cn3)C2)C1 [Example 63]", "assay-result": 0.026}
{"molecule": "COc1cc(-c2cnn(C3CCN(C(=O)C4(C)CN(C(=O)/C=C/CN(C)C)C4)CC3)c2C)cn2ncc(C#N)c12 [Example 157]", "assay-result": 0.09}

Switching to the query record.
The reported value for C=CC(=O)N1CC2(CCN(C(=O)N3CCC(n4cc(-c5cc(OC)c6c(C#N)cnn6c5)cn4)CC3)CC2)C1 [Example 6] in terms of IC50 is 0.01

----------
# system-tested: recombinant human FGFR3 (amino acids R397-T806) (Homo sapiens (Human))
# Sequence (P22607 397-806): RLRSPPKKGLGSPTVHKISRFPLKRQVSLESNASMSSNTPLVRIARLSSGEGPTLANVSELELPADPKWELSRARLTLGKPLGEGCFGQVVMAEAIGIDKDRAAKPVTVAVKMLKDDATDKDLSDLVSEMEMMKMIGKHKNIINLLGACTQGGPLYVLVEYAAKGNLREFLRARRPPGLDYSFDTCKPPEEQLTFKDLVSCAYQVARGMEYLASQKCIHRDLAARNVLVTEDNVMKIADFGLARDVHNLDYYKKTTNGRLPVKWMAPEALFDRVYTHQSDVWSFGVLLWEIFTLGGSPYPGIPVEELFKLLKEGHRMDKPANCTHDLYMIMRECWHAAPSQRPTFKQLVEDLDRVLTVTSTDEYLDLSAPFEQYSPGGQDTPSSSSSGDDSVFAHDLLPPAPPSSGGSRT
# method-summary: FGFR3 enzyme activity assay (LanthaScreen TR-FRET)
# test-context: 25 μM ATP, 10 min incubation at 22° C., average of multiple determinations if made, read-out: FGFR3 Enz FRET IC50
Assignment: determine reported log10(IC50) for the given compounds.
Parameter value (number): base-10 log of IC50 in nM.

Look at each compound and report its log10(IC50).
1. C=CC(=O)Nc1cccc(C(=O)N2CC[C@@H](n3cc(-c4cc(OC)c5c(C#N)cnn5c4)cn3)C2)c1 [Example 56]
2. COc1cc(-c2cnn(C3CCN(CC4(OC)CN(C(=O)/C=C/CN(C)C)C4)CC3)c2C)cn2ncc(Cl)c12 [Example 173]

Resp:
1: 1.00; 2: 1.61

----------
# system-tested: phosphorylated FGFR3 (SEQ ID NO: 5, amino acids 449 to 759) (Homo sapiens (Human), UniProt P22607)
# Sequence (P22607 449-759): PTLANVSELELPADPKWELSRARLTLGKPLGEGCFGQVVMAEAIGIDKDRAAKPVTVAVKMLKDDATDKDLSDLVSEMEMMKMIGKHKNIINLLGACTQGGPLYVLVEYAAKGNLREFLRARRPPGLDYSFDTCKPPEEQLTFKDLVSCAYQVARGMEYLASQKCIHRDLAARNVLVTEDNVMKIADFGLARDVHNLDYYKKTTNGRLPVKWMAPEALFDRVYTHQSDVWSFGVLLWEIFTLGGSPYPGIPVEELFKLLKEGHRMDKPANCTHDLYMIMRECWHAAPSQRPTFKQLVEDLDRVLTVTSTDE
Kindly supply the reported IC50 values for the records listed here.
Give bare numbers, in nM.

{"mol-smiles": "C=CC(=O)N1CC(CN2CC(n3ncc(-c4cc(OC)c5c(C#N)cnn5c4)c3C)C2)C1", "units-of-measure": "nM", "assay-result": 49}
{"mol-smiles": "C=CC(=O)N1CCC(C#N)(C(=O)N2CCC(n3cc(-c4cc(OC)c5c(C#N)cnn5c4)cn3)CC2)CC1", "units-of-measure": "nM", "assay-result": 7}
{"mol-smiles": "C=CC(=O)N[C@H]1CC[C@H](C(=O)N2CC[C@@H](n3cc(-c4cc(OC)c5c(C#N)cnn5c4)cn3)C2)CC1", "units-of-measure": "nM", "assay-result": 25}
{"mol-smiles": "C=CC(=O)N(C)c1ccc(CN2CCC(n3cc(-c4cc(OC)c5c(C#N)cnn5c4)cn3)CC2)cc1", "units-of-measure": "nM", "assay-result": 4}
{"mol-smiles": "COc1cc(-c2cnn(C3CCN(C(=O)C4CN(C(=O)/C=C/CN(C)C)C4)CC3)c2C)cn2ncc(C#N)c12", "units-of-measure": "nM", "assay-result": 7}
{"mol-smiles": "COc1cc(-c2nnn(C3CCN(C(=O)C4(F)CN(C(=O)/C=C/CN(C)C)C4)CC3)c2C)cn2ncc(C#N)c12", "units-of-measure": "nM", "assay-result": 3}

Proceed to the following item.
Documented IC50 of C=CC(=O)N1C2CC1CN(C(=O)N1CCC(n3cc(-c4cc(OC)c5c(C#N)cnn5c4)cn3)CC1)C2 : 4

----------
Let's go through some pIC50 measurements on dephosphorylated FGFR2 (Homo sapiens (Human)) together.
Sequence (P21802 22-821): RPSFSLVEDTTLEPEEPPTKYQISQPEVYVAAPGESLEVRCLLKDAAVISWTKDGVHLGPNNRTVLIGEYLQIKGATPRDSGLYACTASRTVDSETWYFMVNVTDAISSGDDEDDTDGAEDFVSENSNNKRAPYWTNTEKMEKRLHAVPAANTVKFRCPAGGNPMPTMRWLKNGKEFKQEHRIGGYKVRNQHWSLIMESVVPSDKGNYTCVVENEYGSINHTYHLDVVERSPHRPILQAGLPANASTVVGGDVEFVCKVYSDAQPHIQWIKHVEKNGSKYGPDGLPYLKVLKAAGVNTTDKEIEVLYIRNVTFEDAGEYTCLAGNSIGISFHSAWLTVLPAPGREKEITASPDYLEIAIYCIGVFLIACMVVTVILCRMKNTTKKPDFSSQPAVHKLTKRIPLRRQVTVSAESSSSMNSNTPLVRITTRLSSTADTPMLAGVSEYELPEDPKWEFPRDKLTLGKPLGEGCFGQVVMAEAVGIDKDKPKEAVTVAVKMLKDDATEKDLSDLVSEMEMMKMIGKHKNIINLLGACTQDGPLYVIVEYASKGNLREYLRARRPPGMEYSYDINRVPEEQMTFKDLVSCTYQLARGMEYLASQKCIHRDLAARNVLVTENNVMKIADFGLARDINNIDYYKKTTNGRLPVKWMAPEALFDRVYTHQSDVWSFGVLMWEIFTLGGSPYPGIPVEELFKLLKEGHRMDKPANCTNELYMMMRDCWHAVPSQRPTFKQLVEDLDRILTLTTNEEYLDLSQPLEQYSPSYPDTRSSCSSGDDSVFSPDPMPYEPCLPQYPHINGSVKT
One number for each entry, as −log10 of the molar value.

Sample answers from the record:
{"compound": "C=CC(=O)N1CC(C(=O)N2CCC(n3ncc(-c4cc(OC)c5c(C#N)cnn5c4)c3C)CC2)C1(C)C (centres unmarked)", "system-tested": "dephosphorylated FGFR2 (Homo sapiens (Human))", "assay-result": 7.29}
{"compound": "C=CC(=O)N1CC(C(=O)N2C3CC2CN(c2ccc(-c4cc(OC)c5c(C#N)cnn5c4)cn2)C3)C1", "system-tested": "dephosphorylated FGFR2 (Homo sapiens (Human))", "assay-result": 7.49}
{"compound": "C=CC(=O)N1CC(F)(C(=O)N2CCC(n3cc(-c4cc(OC)c5c(Cl)cnn5c4)cn3)CC2)C1", "system-tested": "dephosphorylated FGFR2 (Homo sapiens (Human))", "assay-result": 7.92}

Below is a list of compounds. For each, state its recorded pIC50.
1. C=CC(=O)N1CC(OC)(C(=O)N2CCC(n3ncc(-c4cc(OC)c5c(C#N)cnn5c4)c3C)CC2)C1
2. COc1cc(-c2cnn(C3CCN(C(=O)C4CN(C(=O)C#CCO)C4)CC3)c2)cn2ncc(C#N)c12
3. C=CC(=O)N1CC(O)(C(=O)N2CCC(n3ncc(-c4cc(OC)c5c(Cl)cnn5c4)c3C)CC2)C1
4. COc1cc(-c2cnn(C3CCN(C(=O)C4(OC)CN(C(=O)/C=C/CN(C)C)C4)CC3)c2C)cn2ncc(C#N)c12
5. C=CC(=O)N1CC(C(=O)N2CC3CCC(C2)N3c2ccc(-c3cc(OC)c4c(C#N)cnn4c3)cn2)C1

Resp:
7.92
8.22
6.90
8.10
7.42

----------
# system-tested: HEK-293 cells transfected with dox-inducible human wild type FGFR3 (Homo sapiens (Human), UniProt P22607)
# Sequence (P22607 23-806): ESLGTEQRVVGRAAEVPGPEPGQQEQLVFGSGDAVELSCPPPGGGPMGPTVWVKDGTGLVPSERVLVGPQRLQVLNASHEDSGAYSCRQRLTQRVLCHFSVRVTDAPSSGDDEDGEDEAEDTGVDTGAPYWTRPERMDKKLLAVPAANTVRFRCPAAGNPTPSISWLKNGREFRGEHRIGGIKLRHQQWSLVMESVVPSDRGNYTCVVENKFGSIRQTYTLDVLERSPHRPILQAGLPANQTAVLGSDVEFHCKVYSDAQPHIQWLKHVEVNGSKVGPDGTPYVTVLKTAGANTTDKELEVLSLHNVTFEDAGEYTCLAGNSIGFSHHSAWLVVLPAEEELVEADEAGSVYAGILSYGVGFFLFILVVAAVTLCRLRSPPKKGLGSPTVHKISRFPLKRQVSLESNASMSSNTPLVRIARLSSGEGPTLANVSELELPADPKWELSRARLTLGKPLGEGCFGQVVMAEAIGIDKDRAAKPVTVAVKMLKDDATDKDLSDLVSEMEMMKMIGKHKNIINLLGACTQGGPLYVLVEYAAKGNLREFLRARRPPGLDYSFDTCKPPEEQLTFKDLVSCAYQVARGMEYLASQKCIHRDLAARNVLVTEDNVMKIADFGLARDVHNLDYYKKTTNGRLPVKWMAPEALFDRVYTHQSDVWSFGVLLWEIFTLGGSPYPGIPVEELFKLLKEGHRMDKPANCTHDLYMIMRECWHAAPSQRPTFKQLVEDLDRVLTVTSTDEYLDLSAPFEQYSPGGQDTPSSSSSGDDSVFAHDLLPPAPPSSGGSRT
# method-summary: FGFR3 pERK cell assay
# Assay type: cell-based
# test-context: HEK-293 dox-inducible FGFR3, 1 hour compound, 100 ng/ml FGF-acidic; maximum concentration 5 μM
pIC50: −log10 of the molar value.
Output Y for pIC50 not less than 7; output N otherwise.

Known results for compounds:
{"compound": "C=CC(=O)N1CC(C)(CN2CC(n3ncc(-c4cc(OC)c5c(C#N)cnn5c4)c3C)C2)C1", "class-name": "N"}
{"compound": "C=CC(=O)N1CC(O)(C(=O)N2CCC(n3ncc(-c4cc(OC)c5c(Cl)cnn5c4)c3C)CC2)C1", "class-name": "N"}
{"compound": "COc1cc(-c2nn(C3CCN(C(=O)C4(F)CN(C(=O)/C=C/CN(C)C)C4)CC3)nc2C)cn2ncc(C#N)c12", "class-name": "N"}
{"compound": "C=CS(=O)(=O)N1CCC(C(=O)N2CCC(n3cc(-c4cc(OC)c5c(C#N)cnn5c4)cn3)CC2)CC1", "class-name": "Y"}
{"compound": "C=CC(=O)N1CC(C(=O)N2CCC(n3ncc(-c4cc(OC)c5c(C#N)cnn5c4)c3C)CC2)C1(C)C (stereo not shown)", "class-name": "N"}

Let's switch to this compound now.
Req: // inclusive: pIC50 at least 7? input: COc1cc(-c2cnn(C3CCN(C(=O)C4CN(C(=O)/C=C/CN(C)C)C4)CC3)c2C)cn2ncc(C#N)c12
Resp: N

----------
Hi there, I'd appreciate the recorded log10 IC50 for every entry that follows.
# system-tested: dephosphorylated FGFR1 (SEQ ID NO: 1, amino acids 458 to 765) (Homo sapiens (Human))
Please note: log10 values; quantity IC50; unit nM.

{"mol-smiles": "C=CC(=O)N[C@H]1CC[C@H](C(=O)N2CCC(n3cc(-c4cc(OC)c5c(C#N)cnn5c4)cn3)CC2)CC1", "assay-result": 2.12}
{"mol-smiles": "C=CC(=O)N[C@H]1CC[C@H](C(=O)N2CC[C@@H](n3cc(-c4cc(OC)c5c(C#N)cnn5c4)cn3)C2)CC1", "assay-result": 2.15}
{"mol-smiles": "C=CC(=O)N[C@H]1CC[C@H](C(=O)N2CC[C@H](n3cc(-c4cc(OC)c5c(C#N)cnn5c4)cn3)C2)CC1", "assay-result": 2.25}

Each of the following entries comes with a recorded value; kindly state log10 IC50 for each.
1. CC#CC(=O)N1CC(F)(C(=O)N2CCC(n3ncc(-c4cc(OC)c5c(C#N)cnn5c4)c3C)CC2)C1
2. C=CC(=O)N1CC(C(=O)N2CCC3(C2)CN(c2ccc(-c4cc(OC)c5c(C#N)cnn5c4)cn2)C3)C1
3. COC/C=C/C(=O)N1CC(F)(C(=O)N2CCC(n3ncc(-c4cc(OC)c5c(C#N)cnn5c4)c3C)CC2)C1
4. C=CC(=O)N1CC(OC)(C(=O)N2CCC(n3ncc(-c4cc(OC)c5c(C#N)cnn5c4)c3C)CC2)C1
5. C=CS(=O)(=O)N1CCC2(CC1)CC(C(=O)N1CCC(n3cc(-c4cc(OC)c5c(C#N)cnn5c4)cn3)CC1)C2

Resp:
1. 2.78
2. 1.85
3. 2.63
4. 2.31
5. 1.70

For each of the compounds below, note its log10 IC50.
1. C=CC(=O)N1CC(OC)(C(=O)N2CCC(n3cc(-c4cc(OC)c5c(C#N)cnn5c4)cn3)CC2)C1
2. COc1cc(-c2cnn(C3CCN(C(=O)C4(F)CN(C(=O)/C=C/C(F)(F)F)C4)CC3)c2C)cn2ncc(C#N)c12
3. C=CC(=O)N(C)c1ccc(C(=O)N2CCC(n3cc(-c4cc(OC)c5c(C#N)cnn5c4)cn3)CC2)cc1
4. COc1cc(-c2cnn(C3CCN(C(=O)C4CN(C(=O)/C=C/CO)C4)CC3)c2)cn2ncc(C#N)c12
5. COc1cc(-c2cnc(N3CCN(C(=O)C4(F)CN(C(=O)/C=C/CN(C)C)C4)CC3)cc2C)cn2ncc(C#N)c12
6. C=CC(=O)N1CC[C@H](C(=O)N2CC[C@@H](n3cc(-c4cc(OC)c5c(C#N)cnn5c4)cn3)C2)C1

Resp:
[1.79, 2.63, 1.79, 1.60, 2.90, 2.33]
